# TESTED ON: Human Testicular 17α-Hydroxylase (Homo sapiens, UniProt P05093)
# Construct: incubating human testicular microsomes; from tissue; host or cells: human testis, microsomes
# Sequence (P05093 whole entry): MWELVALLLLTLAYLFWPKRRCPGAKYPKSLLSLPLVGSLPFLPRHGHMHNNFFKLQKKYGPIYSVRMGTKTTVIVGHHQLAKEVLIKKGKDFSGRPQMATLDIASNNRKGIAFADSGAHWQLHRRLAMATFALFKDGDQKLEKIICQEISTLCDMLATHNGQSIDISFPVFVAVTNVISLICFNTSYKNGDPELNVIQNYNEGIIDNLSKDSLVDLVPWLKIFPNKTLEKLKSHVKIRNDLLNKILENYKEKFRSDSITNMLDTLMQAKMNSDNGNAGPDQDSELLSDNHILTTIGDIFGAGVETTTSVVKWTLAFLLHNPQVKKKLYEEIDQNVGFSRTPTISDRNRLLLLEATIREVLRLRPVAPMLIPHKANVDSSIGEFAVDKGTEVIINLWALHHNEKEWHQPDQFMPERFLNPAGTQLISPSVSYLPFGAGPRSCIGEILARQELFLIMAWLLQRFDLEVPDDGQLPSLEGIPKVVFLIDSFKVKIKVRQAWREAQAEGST
# METHOD SUMMARY: Inhibition of human testicular 17α-hydroxylase (pregnenolone substrate, testicular microsomes)
# Format: biochemical
# ASSAY CONDITIONS: IC50 17α-hydroxylase
MEASUREMENT LABEL: IC50 (nM)
Record the value in nM, omitting the unit from your answer.

For reference, reported IC50 for CC(=O)C1=CC[C@H]2[C@@H]3CCC4=CC(=O)CC[C@]4(C)[C@H]3CC[C@]12C [Compound L-13, 16-dehydroprogesterone] stands at 72.7

Hey, just so you know, these numbers are from patent US5994334A.
